Biological target: vanilloid receptor (VR1) (Homo sapiens, UniProt Q8NER1)
Construct: expressed in transfected cells; host or cells: CHO K1 cells (ECACC), stably transfected
Sequence (Q8NER1 whole entry): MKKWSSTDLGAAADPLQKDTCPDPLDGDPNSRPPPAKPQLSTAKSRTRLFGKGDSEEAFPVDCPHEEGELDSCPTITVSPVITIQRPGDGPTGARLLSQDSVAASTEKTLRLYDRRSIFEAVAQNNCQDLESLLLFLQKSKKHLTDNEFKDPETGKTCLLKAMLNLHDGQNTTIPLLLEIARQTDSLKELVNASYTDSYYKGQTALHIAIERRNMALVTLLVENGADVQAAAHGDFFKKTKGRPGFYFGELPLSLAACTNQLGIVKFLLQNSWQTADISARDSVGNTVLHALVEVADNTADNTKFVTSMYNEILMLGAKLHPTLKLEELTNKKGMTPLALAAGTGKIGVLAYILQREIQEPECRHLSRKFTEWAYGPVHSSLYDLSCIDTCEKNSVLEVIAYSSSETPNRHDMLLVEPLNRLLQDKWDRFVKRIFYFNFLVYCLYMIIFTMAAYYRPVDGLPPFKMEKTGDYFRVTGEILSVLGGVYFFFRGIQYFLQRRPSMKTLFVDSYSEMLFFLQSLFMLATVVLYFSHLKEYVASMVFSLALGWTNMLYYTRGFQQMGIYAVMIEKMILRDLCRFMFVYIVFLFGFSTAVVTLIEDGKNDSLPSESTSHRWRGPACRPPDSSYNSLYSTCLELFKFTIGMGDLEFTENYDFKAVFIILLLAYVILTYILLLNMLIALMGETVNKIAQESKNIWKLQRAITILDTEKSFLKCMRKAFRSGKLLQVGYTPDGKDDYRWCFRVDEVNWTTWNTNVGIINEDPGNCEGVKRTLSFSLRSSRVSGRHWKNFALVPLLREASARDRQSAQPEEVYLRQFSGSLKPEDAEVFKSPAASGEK
Experiment: FLIPR Ca2+ influx assay on CHO K1 cells transfected with the VR1 gene (pharmacological method II)
Format: cell-based
Details: table 4; capsaicin; read-out: Ki (human) Cap.
From the text: In this FLIPR assay, the influx of Ca^2+ is quantified with the assistance of a Ca^2+-sensitive dye (type Fluo-4, Molecular Probes Europe BV, Leiden, Netherlands) in a Fluorescent Imaging Plate Reader (FLIPR, Molecular Devices, Sunnyvale, USA) as described below. II. Functional Investigations on the Vanilloid Receptor (VR1) The agonistic or antagonistic action of the substances to be investigated on the vanilloid receptor (VR1) may also be determined with the following assay. […]
pKi: −log10 of the molar value.
Rule: pKi of 9 or more gives t; anything lower gives f.

Determine whether measured pKi meets or exceeds 9 for CC(C(=O)NCc1ccc(C(F)(F)Cl)nc1OC1CCCC1)c1ccc(NS(C)(=O)=O)c(F)c1 (centres unmarked) t

Determine whether measured pKi meets or exceeds 9 for CC(=O)OC1CCN(c2nc(C(F)(F)F)ccc2CNC(=O)C(C)c2ccc(NS(C)(=O)=O)c(F)c2)CC1 (centres unmarked) f

Determine whether measured pKi meets or exceeds 9 for CC(C(=O)NCc1ccc(C(F)(F)F)nc1-c1ccc(F)cc1)c1ccc(NS(C)(=O)=O)c(F)c1 (centres unmarked) t

Determine whether measured pKi meets or exceeds 9 for CC(C)Oc1nc(C(C)(C)C)ccc1CNC(=O)C(C)c1ccc(NS(C)(=O)=O)c(F)c1 (centres unmarked) f

Determine whether measured pKi meets or exceeds 9 for CCC/C=C\c1nc(C(F)(F)F)ccc1CNC(=O)C(C)c1ccc(NS(C)(=O)=O)c(F)c1 (centres unmarked) f

Determine whether measured pKi meets or exceeds 9 for CC(C)COc1nc(C(F)(F)F)ccc1CNC(=O)[C@H](C)c1ccc(NS(C)(=O)=O)c(F)c1 f

Determine whether measured pKi meets or exceeds 9 for CC(C(=O)NCc1ccc(C(F)(F)F)cc1-c1cccnc1)c1ccc(NS(C)(=O)=O)c(F)c1 (centres unmarked) f

Determine whether measured pKi meets or exceeds 9 for CC(C(=O)NCc1ccc(C(F)(F)Cl)nc1OCc1ccccn1)c1ccc(NS(C)(=O)=O)c(F)c1 (centres unmarked) f

Determine whether measured pKi meets or exceeds 9 for CC(C(=O)NCc1ccc(C(F)(F)F)nc1N1CCC(C)(C)CC1)c1ccc(NS(C)(=O)=O)c(F)c1 (centres unmarked) t

Determine whether measured pKi meets or exceeds 9 for Cc1cc(C(C)C(=O)NCc2ccc(C(F)(F)F)nc2N2CCCCC2)ccc1NS(C)(=O)=O (centres unmarked) t

Determine whether measured pKi meets or exceeds 9 for CC(C)COc1cc(C(C)(C)C)ccc1CNC(=O)C(C)c1ccc(NS(C)(=O)=O)c(F)c1 (centres unmarked) f

Determine whether measured pKi meets or exceeds 9 for CCCN(CCC)c1nc(C(C)(C)C)ccc1CNC(=O)C(C)c1ccc(NS(C)(=O)=O)c(F)c1 (centres unmarked) f

Determine whether measured pKi meets or exceeds 9 for CC(C(=O)NCc1ccc(C(F)(F)F)nc1N1CCC(=O)CC1)c1ccc(NS(C)(=O)=O)c(F)c1 (centres unmarked) f

Determine whether measured pKi meets or exceeds 9 for CC(C(=O)NCc1ccc(C(F)(F)F)cc1F)c1ccc(NS(C)(=O)=O)c(F)c1 (centres unmarked) f

Determine whether measured pKi meets or exceeds 9 for CC(C(=O)NCc1ccc(C(F)(F)F)nc1NCc1ccc(Cl)cc1)c1ccc(NS(C)(=O)=O)c(F)c1 (centres unmarked) f

Determine whether measured pKi meets or exceeds 9 for Cc1ccc(Cl)cc1Nc1nc(C(F)(F)F)ccc1CNC(=O)C(C)c1ccc(NS(C)(=O)=O)c(F)c1 (centres unmarked) f

Determine whether measured pKi meets or exceeds 9 for CC(C(=O)NCc1ccc(C(F)(F)F)nc1OCc1ccc(Cl)cc1)c1ccc(NS(C)(=O)=O)c(F)c1 (centres unmarked) f

Determine whether measured pKi meets or exceeds 9 for COc1cc(C(C)C(=O)NCc2ccc(C(F)(F)F)nc2N2CCC(C)CC2)ccc1NS(C)(=O)=O (centres unmarked) f

Determine whether measured pKi meets or exceeds 9 for CC(C(=O)NCc1ccc(C(F)(F)F)nc1OCc1cccnc1)c1ccc(NS(C)(=O)=O)c(F)c1 (centres unmarked) f

Determine whether measured pKi meets or exceeds 9 for Cc1cc(-c2nc(C(F)(F)F)ccc2CNC(=O)C(C)c2ccc(NS(C)(=O)=O)c(F)c2)ccc1F (centres unmarked) t

Determine whether measured pKi meets or exceeds 9 for CC(C(=O)NCc1ccc(C(F)(F)F)nc1N1CCN(c2ncccc2C(F)(F)F)CC1)c1ccc(NS(C)(=O)=O)c(F)c1 (centres unmarked) [Example 212] f

Determine whether measured pKi meets or exceeds 9 for CC(C(=O)NCc1ccc(C(F)(F)F)nc1OCC1CC1C)c1ccc(NS(C)(=O)=O)c(F)c1 (centres unmarked) t
